B1: CCND2 (parent)
chain: YFKCVQKDIQPYMRRMVATWMLEV

Variants of: B1
Run Description: protein stability index of a GFP-peptide fusion (GPS, HEK-293T) (PSI 1-6); higher = more stable;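 further: lentivirally expressed fusions sorted by FACS into six bins by GFP to DsRed ratio, PSI derived from sequencing read proportions per bin multiplied by bin number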
Measurement Setup: c terminus: a fixed tail appended
Metric Name: protein stability index
Please state the value as a number alone, without comment.

Some entries whose results are on file:
>  <Mutation Spec>
V17K

>  <protein stability index>
2.5

$$$$
>  <Mutation Spec>
V17H

>  <protein stability index>
3.14

$$$$
>  <Mutation Spec>
F2Y

>  <protein stability index>
2.68

$$$$
>  <Mutation Spec>
V5K

>  <protein stability index>
2.25

$$$$
>  <Mutation Spec>
K7R

>  <protein stability index>
2.69

$$$$

Measured protein stability index of K7Q : 2.1

Lab note: R15G gave protein stability index of 2.35

# protein stability index of V17G = 3.39

The reported value for M21C in terms of protein stability index is 3.87
